Values from patent US7468281B2

# experimental_protocol: LPME of seven basic drugs from water with different acidic acceptor phases, CE analysis
# Format: physicochemical
# measurement_conditions: acceptor phase 100 mM HCl, measured pH 1.2; water sample, 100 ng/mL
measured_property: Enrichment (average of 3 replicates)

CN[C@@H](C)Cc1ccccc1 = 120
CN1CCN(C(c2ccccc2)c2ccc(Cl)cc2)CC1 (stereo not shown) = 138
CC(N)Cc1ccccc1 (stereo not shown) = 74
CCC(=O)C(CC(C)N(C)C)(c1ccccc1)c1ccccc1 (stereo not shown) = 134

----------
# experimental_protocol: LPME of seven basic drugs from water with different acidic acceptor phases, CE analysis
# Type: physicochemical
# measurement_conditions: acceptor phase 10 mM H2S04, measured pH 2.1; water sample, 100 ng/mL
# Enrichment (average of 3 replicates) annotations
measured_property: Enrichment (average of 3 replicates)

CN[C@@H](C)Cc1ccccc1 = 141
CN1CCN(C(c2ccccc2)c2ccc(Cl)cc2)CC1 (stereo not shown) = 122
CC(N)Cc1ccccc1 (stereo not shown) = 104
CCC(=O)C(CC(C)N(C)C)(c1ccccc1)c1ccccc1 (stereo not shown) = 157
